target: cyclophilin A (CypA) (Homo sapiens (Human)); assay: Inhibitor binding to cyclophilin proteins by SPR, CypA; design: unit not given here; conditions: 1:1 binding model;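 further: Single-cycle kinetics on a Biacore T200, compound injected at several concentrations for 1 min each at 50 µL/min, then 10 min dissociation, in HEPES pH 7.4 buffer with 3% DMSO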
Sequence (P62937 whole entry): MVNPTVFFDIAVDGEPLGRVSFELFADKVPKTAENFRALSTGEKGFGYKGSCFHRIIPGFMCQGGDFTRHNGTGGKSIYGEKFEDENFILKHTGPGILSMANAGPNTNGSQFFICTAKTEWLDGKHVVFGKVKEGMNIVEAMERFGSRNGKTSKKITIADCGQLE
Starred links: 1 amine or outer side, 2 acyl side, 3 side chain; linkers in the order of their positions; H or OH if unused. Non-standard residues stand in square brackets, D forms with d. Residues, ends and D or L forms follow the SMILES beside them. X62 = COCCN1CCN(CCC[C@@H](C)[C@@H](C(=O)[*:2])N(C)[*:1])CC1; X71 = COC1CN(CC[C@@H](C)[C@@H](C(=O)[*:2])N(C)[*:1])C1; MeBmt = C/C=C/C[C@@H](C)[C@@H](O)[C@H](NC)C(=O)O; X15 = COCC(COC)[C@@H](C(=O)[*:2])N(C)[*:1]; NMeL = CN[C@@H](CC(C)C)C(=O)O; NMeV = CN[C@H](C(=O)O)C(C)C; dNMeA = CN[C@H](C)C(=O)O; Abu = CC[C@H](N)C(=O)O
Quick reference for CypA Kd among some compounds

{"Compound": "C/C=C/C[C@@H](C)[C@@H](O)[C@H]1C(=O)N[C@@H](CC)C(=O)N(C)[C@H](C)C(=O)N(C)[C@@H]([C@H](C)CCCN2CCN(CC)CC2)C(=O)N[C@@H](C(C)C)C(=O)N(C)[C@@H](CC(C)C)C(=O)N[C@@H](C)C(=O)N[C@H](C)C(=O)N(C)[C@@H](CC(C)C)C(=O)N(C)[C@@H](CC(C)C)C(=O)N(C)[C@@H](C(C)C)C(=O)N1C (stereo in doubt)", "Tested system": "cyclophilin A (CypA) (Homo sapiens (Human))", "CypA Kd": 0.6}
{"Compound": "C/C=C/C[C@@H](C)[C@@H](O)[C@H]1C(=O)N[C@@H](CC)C(=O)N(C)[C@H](C)C(=O)N(C)[C@@H]([C@H](C)CCN2CC(OC)C2)C(=O)N[C@@H](C(C)C)C(=O)N(C)[C@@H](CC(C)C)C(=O)N[C@@H](C)C(=O)N[C@H](C)C(=O)N(C)[C@@H](CC(C)C)C(=O)N(C)[C@@H](CC(C)C)C(=O)N(C)[C@@H](C(C)C)C(=O)N1C [Compound 2.18.5] (cyclo(A[dA][NMeL][NMeL][NMeV][MeBmt][Abu][dNMeA][X71]V[NMeL]))", "Tested system": "cyclophilin A (CypA) (Homo sapiens (Human))", "CypA Kd": 0.9}
{"Compound": "C/C=C/C[C@@H](C)[C@@H](O)[C@H]1C(=O)N[C@@H](CC)C(=O)N(C)[C@H](C)C(=O)N(C)[C@@H]([C@H](C)COCCN2CC(OC)C2)C(=O)N[C@@H](C(C)C)C(=O)N(C)[C@@H](CC(C)C)C(=O)N[C@@H](C)C(=O)N[C@H](C)C(=O)N(C)[C@@H](CC(C)C)C(=O)N(C)[C@@H](CC(C)C)C(=O)N(C)[C@@H](C(C)C)C(=O)N1C", "Tested system": "cyclophilin A (CypA) (Homo sapiens (Human))", "CypA Kd": 0.6}
{"Compound": "C/C=C/C[C@@H](C)[C@@H](O)[C@H]1C(=O)N[C@@H](CC)C(=O)N(C)[C@H](C)C(=O)N(C)[C@@H](C(COC)COC)C(=O)N[C@@H](C(C)C)C(=O)N(C)[C@@H](CC(C)C)C(=O)N[C@@H](C)C(=O)N[C@H](C)C(=O)N(C)[C@@H](CC(C)C)C(=O)N(C)[C@@H](CC(C)C)C(=O)N(C)[C@@H](C(C)C)C(=O)N1C [Compound 2.11] (cyclo(A[dA][NMeL][NMeL][NMeV][MeBmt][Abu][dNMeA][X15]V[NMeL]))", "Tested system": "cyclophilin A (CypA) (Homo sapiens (Human))", "CypA Kd": 1.9}
{"Compound": "C/C=C/C[C@@H](C)[C@@H](O)[C@H]1C(=O)N[C@@H](CC)C(=O)N(C)[C@H](C)C(=O)N(C)[C@@H]([C@H](C)CCCN2CCN(CCOC)CC2)C(=O)N[C@@H](C(C)C)C(=O)N(C)[C@@H](CC(C)C)C(=O)N[C@@H](C)C(=O)N[C@H](C)C(=O)N(C)[C@@H](CC(C)C)C(=O)N(C)[C@@H](CC(C)C)C(=O)N(C)[C@@H](C(C)C)C(=O)N1C [Compound 2.19.6] (cyclo(A[dA][NMeL][NMeL][NMeV][MeBmt][Abu][dNMeA][X62]V[NMeL]))", "Tested system": "cyclophilin A (CypA) (Homo sapiens (Human))", "CypA Kd": 0.7}

* * *

Measured CypF Kd, listed per entry.
target: CypF (Homo sapiens (Human), UniProt P30405); test: Inhibitor binding to cyclophilin proteins by SPR, CypF; details: 1:1 binding model
Sequence (P30405 30-207): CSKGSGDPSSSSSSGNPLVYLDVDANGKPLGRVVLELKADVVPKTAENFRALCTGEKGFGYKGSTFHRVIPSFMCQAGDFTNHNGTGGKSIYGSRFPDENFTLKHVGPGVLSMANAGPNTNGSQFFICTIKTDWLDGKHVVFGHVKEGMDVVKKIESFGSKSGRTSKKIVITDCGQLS
Starred links: 1 amine or outer side, 2 acyl side, 3 side chain; linkers in the order of their positions; H or OH if unused. Non-standard residues stand in square brackets, D forms with d. Residues, ends and D or L forms follow the SMILES beside them. X75 = C[C@H](CCC(C)(C)OC(=O)N1CCN(C)CC1)[C@@H](C(=O)[*:2])N(C)[*:1]; X79 = COCCN1CCN(CC[C@@H](C)[C@@H](C(=O)[*:2])N(C)[*:1])CC1; MeBmt = C/C=C/C[C@@H](C)[C@@H](O)[C@H](NC)C(=O)O; NMeL = CN[C@@H](CC(C)C)C(=O)O; NMeV = CN[C@H](C(=O)O)C(C)C; dNMeA = CN[C@H](C)C(=O)O; Abu = CC[C@H](N)C(=O)O

{"Compound": "C/C=C/C[C@@H](C)[C@@H](O)[C@H]1C(=O)N[C@@H](CC)C(=O)N(C)[C@H](C)C(=O)N(C)[C@@H]([C@H](C)CCN2CCN(CCOC)CC2)C(=O)N[C@@H](C(C)C)C(=O)N(C)[C@@H](CC(C)C)C(=O)N[C@@H](C)C(=O)N[C@H](C)C(=O)N(C)[C@@H](CC(C)C)C(=O)N(C)[C@@H](CC(C)C)C(=O)N(C)[C@@H](C(C)C)C(=O)N1C [Compound 2.18.3] (cyclo(A[dA][NMeL][NMeL][NMeV][MeBmt][Abu][dNMeA][X79]V[NMeL]))", "CypF Kd, nM": 0.5}
{"Compound": "C/C=C/C[C@@H](C)[C@@H](O)[C@H]1C(=O)N[C@@H](CC)C(=O)N(C)[C@H](C)C(=O)N(C)[C@@H]([C@H](C)CCC(C)(C)OC(=O)N2CCN(C)CC2)C(=O)N[C@@H](C(C)C)C(=O)N(C)[C@@H](CC(C)C)C(=O)N[C@@H](C)C(=O)N[C@H](C)C(=O)N(C)[C@@H](CC(C)C)C(=O)N(C)[C@@H](CC(C)C)C(=O)N(C)[C@@H](C(C)C)C(=O)N1C [Compound 2.12.2] (cyclo(A[dA][NMeL][NMeL][NMeV][MeBmt][Abu][dNMeA][X75]V[NMeL]))", "CypF Kd, nM": 10}

* * *

Items are presented alongside their recorded CypB Kd.
target: cyclophilin B (CypB) (Homo sapiens (Human), UniProt P23284); test: Inhibitor binding to cyclophilin proteins by SPR, CypB; set-up: unit not given here; details: 1:1 binding model
Sequence (P23284 34-216): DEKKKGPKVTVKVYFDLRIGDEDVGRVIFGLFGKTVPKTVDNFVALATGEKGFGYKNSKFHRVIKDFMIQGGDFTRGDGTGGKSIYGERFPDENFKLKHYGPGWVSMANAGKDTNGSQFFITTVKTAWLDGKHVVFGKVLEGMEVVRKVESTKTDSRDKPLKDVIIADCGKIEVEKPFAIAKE
Starred links: 1 amine or outer side, 2 acyl side, 3 side chain; linkers in the order of their positions; H or OH if unused. Non-standard residues stand in square brackets, D forms with d. Residues, ends and D or L forms follow the SMILES beside them. X73 = CO[C@H]1CCN(CCOC[C@@H](C)[C@@H](C(=O)[*:2])N(C)[*:1])C1; X69 = C[C@H](CCCN1CCC(C(N)=O)CC1)[C@@H](C(=O)[*:2])N(C)[*:1]; X49 = C[C@H](CCC(=O)N1CCN(C)CC1)[C@@H](C(=O)[*:2])N(C)[*:1]; X41 = CC(C)N1CCN(C[C@@H](C)[C@@H](C(=O)[*:2])N(C)[*:1])CC1; X21 = CCN1CCN(C[C@@H](C)[C@@H](C(=O)[*:2])N(C)[*:1])CC1; MeBmt = C/C=C/C[C@@H](C)[C@@H](O)[C@H](NC)C(=O)O; NMeL = CN[C@@H](CC(C)C)C(=O)O; NMeV = CN[C@H](C(=O)O)C(C)C; dNMeA = CN[C@H](C)C(=O)O; Abu = CC[C@H](N)C(=O)O

{"Compound": "C/C=C/C[C@@H](C)[C@@H](O)[C@H]1C(=O)N[C@@H](CC)C(=O)N(C)[C@H](C)C(=O)N(C)[C@@H]([C@H](C)CCCN2CCC(C(N)=O)CC2)C(=O)N[C@@H](C(C)C)C(=O)N(C)[C@@H](CC(C)C)C(=O)N[C@@H](C)C(=O)N[C@H](C)C(=O)N(C)[C@@H](CC(C)C)C(=O)N(C)[C@@H](CC(C)C)C(=O)N(C)[C@@H](C(C)C)C(=O)N1C [Compound 2.19.2] (cyclo(A[dA][NMeL][NMeL][NMeV][MeBmt][Abu][dNMeA][X69]V[NMeL]))", "CypB Kd": 0.6}
{"Compound": "C/C=C/C[C@@H](C)[C@@H](O)[C@H]1C(=O)N[C@@H](CC)C(=O)N(C)[C@H](C)C(=O)N(C)[C@@H]([C@H](C)CCC(=O)N2CCN(C)CC2)C(=O)N[C@@H](C(C)C)C(=O)N(C)[C@@H](CC(C)C)C(=O)N[C@@H](C)C(=O)N[C@H](C)C(=O)N(C)[C@@H](CC(C)C)C(=O)N(C)[C@@H](CC(C)C)C(=O)N(C)[C@@H](C(C)C)C(=O)N1C [Compound 2.14.3] (cyclo(A[dA][NMeL][NMeL][NMeV][MeBmt][Abu][dNMeA][X49]V[NMeL]))", "CypB Kd": 0.9}
{"Compound": "C/C=C/C[C@@H](C)[C@@H](O)[C@H]1C(=O)N[C@@H](CC)C(=O)N(C)[C@H](C)C(=O)N(C)[C@@H]([C@H](C)COCCN2CC[C@H](OC)C2)C(=O)N[C@@H](C(C)C)C(=O)N(C)[C@@H](CC(C)C)C(=O)N[C@@H](C)C(=O)N[C@H](C)C(=O)N(C)[C@@H](CC(C)C)C(=O)N(C)[C@@H](CC(C)C)C(=O)N(C)[C@@H](C(C)C)C(=O)N1C [Compound 2.8.7] (cyclo(A[dA][NMeL][NMeL][NMeV][MeBmt][Abu][dNMeA][X73]V[NMeL]))", "CypB Kd": 0.4}
{"Compound": "C/C=C/C[C@@H](C)[C@@H](O)[C@H]1C(=O)N[C@@H](CC)C(=O)N(C)[C@H](C)C(=O)N(C)[C@@H]([C@H](C)CN2CCN(CC)CC2)C(=O)N[C@@H](C(C)C)C(=O)N(C)[C@@H](CC(C)C)C(=O)N[C@@H](C)C(=O)N[C@H](C)C(=O)N(C)[C@@H](CC(C)C)C(=O)N(C)[C@@H](CC(C)C)C(=O)N(C)[C@@H](C(C)C)C(=O)N1C [Compound 2.5.13] (cyclo(A[dA][NMeL][NMeL][NMeV][MeBmt][Abu][dNMeA][X21]V[NMeL]))", "CypB Kd": 0.8}
{"Compound": "C/C=C/C[C@@H](C)[C@@H](O)[C@H]1C(=O)N[C@@H](CC)C(=O)N(C)[C@H](C)C(=O)N(C)[C@@H]([C@H](C)CN2CCN(C(C)C)CC2)C(=O)N[C@@H](C(C)C)C(=O)N(C)[C@@H](CC(C)C)C(=O)N[C@@H](C)C(=O)N[C@H](C)C(=O)N(C)[C@@H](CC(C)C)C(=O)N(C)[C@@H](CC(C)C)C(=O)N(C)[C@@H](C(C)C)C(=O)N1C [Compound 2.5.12] (cyclo(A[dA][NMeL][NMeL][NMeV][MeBmt][Abu][dNMeA][X41]V[NMeL]))", "CypB Kd": 0.7}

The reported measurements were obtained from patent US9566312B2.
